Data origin: ChEMBL document CHEMBL4261496

Molecular target: DNA gyrase (Escherichia coli, UniProt P0AES4+P0AES6)
Assay: Inhibition of Escherichia coli DNA gyrase assessed as inhibition of pUC19 supercoiling after 30 mins by agarose gel electrophoresis
Endpoint Label: pIC50
Remember, pIC50 is on a log scale: it is -log10 of the molar concentration.

Reported pIC50 for Cc1ccc(C#N)cc1S(=O)(=O)N[C@@H]1CCN(Cc2ccc(-c3ccccc3)cc2)C1 : what is it?
7.33

Name the reported pIC50 value associated with the compound N#Cc1cccc(S(=O)(=O)N[C@@H]2CCN(Cc3ccc(-c4ccccc4)cc3)C2)c1
7.28

Given the entry Cc1ccc(C(F)(F)F)cc1S(=O)(=O)N[C@@H]1CCN(Cc2ccc(OC3CC3)cc2)C1 , report its measured pIC50.
6.77
